B1: STX11 (parent)
chain: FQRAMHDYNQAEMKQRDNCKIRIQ

# Variants of: B1
# ASSAY PROTOCOL: protein stability index of a GFP-peptide fusion (GPS, HEK-293T) (PSI 1-6); higher = more stable;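 further: lentivirally expressed fusions sorted by FACS into six bins by GFP to DsRed ratio, PSI derived from sequencing read proportions per bin multiplied by bin number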
# ASSAY SETUP: c terminus: a fixed tail appended
The recorded protein stability index of each item maps onto one of these classes: low range = under 2, mid range = from 2 up to 3, high range = 3 and over

For orientation, consider the following solved cases.
POLYMER SEQUENCE	LABEL VALUE
FQRYMHDYNQAEMKQRDNCKIRIQ [A4Y]	mid range
FQRAMHDYNQAEMKQRDNWKIRIQ [C19W]	mid range
FQRAMHDYNQAEMKVRDNCKIRIQ [Q15V]	mid range
FQIAMHDYNQAEMKQRDNCKIRIQ [R3I]	mid range

Class? Entry: FQLAMHDYNQAEMKQRDNCKIRIQ [R3L] mid range
